Tested on: CAKI-1 renal
assay: NCI tumour cell line growth inhibition, 48 h
Use TGI to assign classes; range list: low band = under 20 µM, middle band = from 20 µM up to 70 µM, high band = 70 µM and over

Which category does the recorded TGI put CCOC(=O)c1cc2c(n1Cc1cccc(OC)c1)-c1oncc1CCC2 in?
high band

Which category does the recorded TGI put O=S(=O)(Nc1ccc(Br)c(Cl)c1)c1ccc(-c2cnc(C3CC3)o2)cc1 in?
low band

Which category does the recorded TGI put NCCSC(c1ccccc1)c1ccccc1 in?
middle band

Which category does the recorded TGI put O=C(Nc1cccc(-n2cc(-c3ccncc3)c(-c3cc(O)cc(Cl)c3)n2)c1)Nc1ccc(Cl)c(C(F)(F)F)c1 in?
low band

Which category does the recorded TGI put Cc1cccc(N(C(=O)Nc2ccc(Cl)c(Cl)c2)C2=NCC(C)S2)c1 (stereo not given) in?
high band

Which category does the recorded TGI put COc1cc(NC(C)CCCN)c2ncccc2c1 (stereo not given) in?
high band

Which category does the recorded TGI put Cc1ccccc1C(=O)N/N=C/c1ccc(Sc2nccn2C)c([N+](=O)[O-])c1 in?
high band

Which category does the recorded TGI put NC(=O)c1ccc(I)c(N=O)c1 in?
middle band

Which category does the recorded TGI put COC(=O)C(C#CCCCCC#CC(NC(=O)OCc1ccccc1)(C(=O)OC)C(F)(F)F)(NC(=O)OCc1ccccc1)C(F)(F)F (stereo not given) in?
high band

Which category does the recorded TGI put COc1ccc2c(c1)[n+]([O-])c(-c1ccc(OC)c(OC)c1)c(N)[n+]2[O-] in?
high band

Which category does the recorded TGI put CC1=NN(c2cccc(Cl)c2)C2(SCC(=O)N2c2nc3ccccc3s2)/C1=C\c1cccs1 (stereo not given) in?
high band

Which category does the recorded TGI put CCn1cc(C(=O)N/N=C/c2ccccc2)c(=O)c2cc(F)c(N3CCNC(C)C3)c(F)c21 (stereo not given) in?
low band

Which category does the recorded TGI put C[C@H](CCC(=O)O)[C@H]1CC[C@@]2(C)[C@@H]3C(=O)C[C@H]4C(C)(C)[C@@H](O)CC[C@]4(C)[C@H]3C(=O)C[C@]12C in?
high band

Which category does the recorded TGI put Cc1cccc(CP(Cc2cccc(C)c2)CC2(Cp3c4ccccc4c4ccccc43)COC2)c1 in?
high band

Which category does the recorded TGI put CN1c2ccccc2N(C(=O)c2ccc(Cl)cc2)C(CC(=O)O)c2cccn21 (stereo not given) in?
high band

Which category does the recorded TGI put c1csc(-c2cn3nc(-c4c[nH]c5ccccc45)sc3n2)c1 in?
high band

Which category does the recorded TGI put CCC12CCCN(Cc3ccccc3)C1c1c(n(C)c3ccccc13)C(C(=O)OC)C2 (stereo not given) in?
high band

Which category does the recorded TGI put O=C1Nc2nc3ccccc3n2N=C2CCCC12 (stereo not given) in?
high band

Which category does the recorded TGI put O=C(O)C1OC1(c1cccc(Cl)c1)c1ccccc1Cl (stereo not given) in?
high band

Which category does the recorded TGI put Nc1ccc2c(SCc3ccc([N+](=O)[O-])cc3)c3ccccc3nc2c1 in?
middle band
